Where these numbers come from: patent US9163003B2

test system: Axin2 protein; test: Cellular ELISA assay for stabilizing the Axin2 protein in SW480 cells; assay type: cell-based; conditions: Homo sapiens, 24 hrs treatment, read-out: Axin AC50
Measurement Name: log10 of AC50 (log10 of the value in µM)
Scale type: logarithmic (base 10). Underlying AC50 unit: µM.

Illustrative cases are given below, each with its answer.
COc1ccc(C(=O)C2CCN(C3CCN(Cc4cccc(Cl)c4C#N)C3=O)CC2)cc1 (stereo not drawn) ... -0.62
COc1ccc(C(=O)C2CCN([C@@H]3CCN(Cc4nc5c(c(=O)[nH]4)COCC5)C3=O)CC2)cc1C ... -0.89
CCc1cc(=O)[nH]c(CN2CCC(N3CCC(C(=O)c4ccc(OC)cc4)CC3)C2=O)n1 (stereo not drawn) ... -0.98

Form: compound = COc1ccc(C(=O)C2CCN([C@H]3CCN(Cc4nc5ccccc(=O)c5[nH]4)C3=O)CC2)cc1C ; log10 of AC50 = -3.34
